Target Under Test: UniProt Q7Z1V1
Assay Comment: Spectral titration of TCCYP51
Type: binding
Applied Conditions: ligand-free maximum 417 nm
Metric Name: Spectral Response in TCCYP51, Soret band maximum (nm)

1. CC1CCC(C(=O)NC(Cc2c[nH]c3ccccc23)C(=O)Nc2ccncc2)CC1 (stereo not shown) = 422
2. COc1ccc2c(c1)c(CC(=O)Nc1ccccn1)c(C)n2C(=O)c1ccc(Cl)cc1 = 416
3. COc1ccc2c(c1)c(CC(=O)NCc1ccncc1)c(C)n2C(=O)c1ccc(Cl)cc1 = 422
4. COc1ccc2c(c1)c(CC(=O)Nc1ncccn1)c(C)n2C(=O)c1ccc(Cl)cc1 = 417
5. CCC(C(=O)Nc1ccncc1)c1ccccc1 (stereo not shown) [Compound 5, 2-phenyl-N-pyridin-4-ylbutanamide] = 422
6. COc1ccc2c(c1)c(CC(=O)NCCc1cccc(Cl)c1)c(C)n2C(=O)c1ccc(Cl)cc1 = 419
7. O=C(Nc1ccncc1)C1c2ccccc2Oc2ccccc21 = 422
8. COc1ccc2c(c1)c(CC(=O)NCc1ccc(Cl)nc1)c(C)n2C(=O)c1ccc(Cl)cc1 = 420
9. COc1ccc2c(c1)c(CC(=O)NCc1ccc(C(F)(F)F)nc1)c(C)n2C(=O)c1ccc(Cl)cc1 = 420
10. COc1ccc2c(c1)c(CC(=O)NCc1ccccn1)c(C)n2C(=O)c1ccc(Cl)cc1 = 418

----------
Quick reference for Spectral Response in TCCYP51, Soret band maximum among some compounds
Target Under Test: TCCYP51 (Trypanosoma cruzi, UniProt Q7Z1V1)
Sequence (Q7Z1V1 whole entry): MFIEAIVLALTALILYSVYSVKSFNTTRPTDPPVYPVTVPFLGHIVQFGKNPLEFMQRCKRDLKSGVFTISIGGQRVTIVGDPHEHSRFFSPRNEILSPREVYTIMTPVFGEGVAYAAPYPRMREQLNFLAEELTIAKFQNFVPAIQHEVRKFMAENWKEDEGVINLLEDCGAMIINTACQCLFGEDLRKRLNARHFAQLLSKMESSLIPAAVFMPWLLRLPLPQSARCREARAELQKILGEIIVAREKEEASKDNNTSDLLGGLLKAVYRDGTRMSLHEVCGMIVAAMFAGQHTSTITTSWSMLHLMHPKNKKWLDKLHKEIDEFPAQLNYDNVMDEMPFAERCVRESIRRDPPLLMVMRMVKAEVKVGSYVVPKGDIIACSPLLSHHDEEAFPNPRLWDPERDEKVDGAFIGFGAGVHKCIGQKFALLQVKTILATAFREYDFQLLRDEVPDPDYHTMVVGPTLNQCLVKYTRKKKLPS
Assay Comment: Spectral titration of TCCYP51
Assay type: binding
Applied Conditions: ligand-free maximum 417 nm
Metric Name: Spectral Response in TCCYP51, Soret band maximum

1) COc1ccc2c(c1)c(CC(=O)NCCc1cccnc1)c(C)n2C(=O)c1ccc(Cl)cc1 = 422 nm
2) COc1ccc2c(c1)c(CC(=O)NCC(C)c1ccccc1)c(C)n2C(=O)c1ccc(Cl)cc1 (stereo not shown) = 419 nm
3) COc1ccc2c(c1)c(CC(=O)NC(C)c1ccncc1)c(C)n2C(=O)c1ccc(Cl)cc1 (stereo not shown) = 422 nm
4) COc1ccc2c(c1)c(CC(=O)Nc1cccnc1)c(C)n2C(=O)c1ccc(Cl)cc1 = 422 nm
